B1: Gamma-crystallin S, residues 96 to 176; numbered along this chain, P22914 (parent)
chain: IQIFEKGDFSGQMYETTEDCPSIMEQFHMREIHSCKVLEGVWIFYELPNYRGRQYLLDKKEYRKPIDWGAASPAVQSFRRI

Variants of: B1
TEST DESCRIPTION: abundance fitness (aPCA) (normalised: wild type 0, dead -1); higher = more abundant; growth selection in yeast, the domain comes from the species named
CONDITION INFO: Homo sapiens
METRIC NAME: abundance fitness

# RESIDUE CHANGE, OBSERVED MEASUREMENT
data = [
    ("S34N", -0.434),
    ("M29Y", 0.025),
    ("G69R", 0.012),
    ("L38G", 0.02),
    ("F44T", -0.195),
    ("H28Y", 0.035),
    ("M13Q", 0.019),
    ("E39S", 0.035),
    ("S72P", 0.069),
    ("K6P", -1.1),
    ("H28V", -0.011),
    ("K59Q", -0.022),
    ("H28Q", 0.037),
    ("S10V", -0.003),
    ("Q12Y", 0.035),
    ("L38Y", -0.079),
    ("V37D", -0.166),
    ("L57M", 0.17),
    ("T16N", 0.024),
    ("E46D", -0.476),
    ("C20K", -0.027),
    ("K59I", 0.026),
    ("Y14S", 0.07),
    ("P21D", -0.063),
    ("P73F", 0.27),
    ("S34F", -1.06),
    ("P73D", -0.23),
    ("L56P", 0.166),
    ("G7N", -0.16),
    ("G7T", -0.03),
    ("Y45H", -0.123),
    ("M13G", -0.041),
    ("L57A", -0.039),
    ("I32R", -1.01),
    ("E61S", -0.358),
    ("M13V", -0.017),
    ("I43V", -0.013),
    ("D67K", -0.127),
    ("R63L", 0.133),
]
